System Under Test: T1, human membrane-bound IL-6R subunit alpha (human, UniProt P08887 20-468)
T1 sequence: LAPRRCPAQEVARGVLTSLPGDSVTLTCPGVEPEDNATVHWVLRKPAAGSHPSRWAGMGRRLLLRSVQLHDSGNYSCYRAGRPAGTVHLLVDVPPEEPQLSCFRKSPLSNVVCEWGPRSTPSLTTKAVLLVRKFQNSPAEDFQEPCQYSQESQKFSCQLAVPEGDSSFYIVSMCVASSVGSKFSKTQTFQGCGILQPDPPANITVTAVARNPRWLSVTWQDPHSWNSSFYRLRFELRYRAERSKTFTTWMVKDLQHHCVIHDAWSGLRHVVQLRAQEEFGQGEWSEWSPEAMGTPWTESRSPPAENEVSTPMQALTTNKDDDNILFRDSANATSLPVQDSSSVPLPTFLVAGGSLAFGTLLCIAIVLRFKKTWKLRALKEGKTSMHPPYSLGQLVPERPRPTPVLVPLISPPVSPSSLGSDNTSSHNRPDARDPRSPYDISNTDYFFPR
Assay Details: cell-based or functional assay
Known Proliferation in % of Ba/F3_gp130_IL-6R cells (10 ng/ml IL-6 = 100%), IgG at 1 µg/ml of a selection of binders
Your answer is read as %, so omit the unit and give the number.

{"Binder": "anti-IL-6R IgG antibody 09 (C09 antibody, Fab chimerized with human IgG1) (antibody, V domains shown) VH: EVQLVESGGDLVQPGGSLKLSCAASGFTFSNYGMSWVRQTPDKRLELVAAINSNGGSTYYPDSVKGRFTISRDNAKNTLYLQMSSLKSEDTAMYYCARDGNYVSDYWGQGTTLTVSS VL: DIVLTQSPASLAVSLGQRATISCRASESVDSYGNSFMHWYQQKPGQPPKLLIYLASNLESGVPARFSGSGSRTDFTLTIDPVEADDAATYYCQQNNEDPWTFGGGTKLEIK", "Quantity Unit": "%", "Quantitative Readout": 100}
{"Binder": "anti-IL-6R IgG antibody 07 (C07 antibody, Fab chimerized with human IgG1) (antibody, V domains shown) VH: EVKLVESGGGLVQPGGSLKLSCAASGFTFSSYAMSWVRQTADKRLELVANINSNGGSTYYPDSVKGRFTISRDNAKNTLFLQMSSLKSEDTAMYYCAREGYYTMDYWGQGTSVTVSS VL: DIVLTQSPASLAVSPGQRATISCRASESVDSYGNSFMNWYQQKPGQPPKLLIYLASNLESGVPARFSGSGSRTDFTLTIDPVEADDAATYYCQQNNEDPYTFGGGTKLEIK", "Quantity Unit": "%", "Quantitative Readout": 92}
{"Binder": "anti-IL-6R IgG antibody 12 (C12 antibody, Fab chimerized with human IgG1) (antibody, V domains shown) VH: EVKLMESGGGLVQPGGSLKLSCAASGFTFSNYGMSWVRQTPDKRLEWVANINSNGGSTYYPDSVKGRFTISRDNAQNTLYLQMSSLKSEDTAMYYCTRDGNFVSDYWGQGTTLTVSS VL: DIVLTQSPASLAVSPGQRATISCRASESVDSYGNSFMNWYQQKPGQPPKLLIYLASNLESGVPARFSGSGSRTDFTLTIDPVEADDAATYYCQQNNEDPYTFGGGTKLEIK", "Quantity Unit": "%", "Quantitative Readout": 94.3}
{"Binder": "anti-IL-6R IgG antibody 20 (C20 antibody, Fab chimerized with human IgG1) (antibody, V domains shown) VH: EVKLMESGGGLVQPGGSLKLSCAASGFTFSNYGMSWVRQTPDKRLELVAIINSNGGSTYYPDSVKGRFTISRDNAKNTLYLQMSSLKSEDTAIYYCARDGNFVSDYWGQGTTLTVSS VL: DIVLTQSPASLAVSLGQRATISCRASESVDSYGNRFLNWYQQKPGQPPKLLIYLASNLESGVPARFSGSGSRTDFTLTIDPVEADDAATYYCQQNNEDPYTFGGGTKLEIK", "Quantity Unit": "%", "Quantitative Readout": 92.6}

Read the next record carefully.
Query: Specify Proliferation in % of Ba/F3_gp130_IL-6R cells (10 ng/ml IL-6 = 100%), IgG at 1 µg/ml for anti-IL-6R IgG antibody 19 (C19 antibody, Fab chimerized with human IgG1) (antibody, V domains shown) VH: EVKLMESGGGLVQPGGSLKLSCAASGFTFSNYGMSWVRQTPDKRLELVAIMNSKGGSTYYPDSVMGRFTISRDNAKNTLYLQMSSLKSEDTAMYYCARDGYYTMDYWGQGTSVTVSS VL: DIVLTQSPASLAVSLGQRATISCRASKSVDSFGNSFMHWYQQKPGQSPRLLIFLASNLESGVPARFSGSGSRTDFTLTIDPVEADDAATYYCQQNNEDPYTFGGGTKLEIK and stop.
Reply: 100
